Data provenance is ChEMBL document CHEMBL4014334.

- target_under_test: Bromodomain testis-specific protein (Homo sapiens, UniProt Q58F21)
- protocol_text: Binding affinity to BRDT bromodomain 1 (29 to 134 residues)(unknown origin) expressed in Escherichia coli BL21(DE3) assessed as change in melting temperature at 150 uM at 25 to 75 degC after 5 mins by SYPRO orange dye based differential scanning fluorimetric analysis
measure_name: ΔTm (°C)

CCn1c2c(c(=O)[nH]c1=O)C(c1ccc(C(F)(F)F)cc1)C1=C(COC1=O)N2 (stereo not drawn) ... -0.44
COc1ccc(C2C3=C(COC3=O)Nc3c2c(=O)n(C)c(=O)n3C)cc1 (stereo not drawn) ... -0.48
CCn1c2c(c(=O)[nH]c1=O)C(c1ccc(C)cc1)C1=C(COC1=O)N2 (stereo not drawn) ... 4.8
COc1ccc(C2C3=C(COC3=O)Nc3c2c(=O)[nH]c(=O)n3C)cc1 (stereo not drawn) ... -0.35
CCn1c2c(c(=O)[nH]c1=O)C(c1ccc(C)cc1)C1=C(CCC1=O)N2 (stereo not drawn) ... 0.06

a = CCn1c2c(c(=O)[nH]c1=O)C(c1ccc(C)cc1)C1=C(CN(C)C1=O)N2 (stereo not drawn)
b = Cn1c2c(c(=O)[nH]c1=O)C(c1ccccc1)C1=C(COC1=O)N2 (stereo not drawn)
c = Cc1ccc(C2C3=C(COC3=O)Nc3c2c(=O)n(C)c(=O)n3C)cc1 (stereo not drawn)
d = CCn1c2c(c(=O)[nH]c1=O)C(c1ccc(Cl)cc1)C1=C(COC1=O)N2 (stereo not drawn)
e = Cc1ccc(C2C3=C(COC3=O)Nc3c2c(=O)[nH]c(=O)n3C2CC2)cc1 (stereo not drawn)
Query: Order these by ΔTm, descending, and give the full ranking. Please reply with the labels ordered as requested. Many thanks.
Result: d, e, a, c, b
(d: 1.4 °C, e: 0.06 °C, a: -0.04 °C, c: -0.46 °C, b: -1.1 °C)

A = Cc1ccc(C2C3=C(COC3=O)Nc3c2c(=O)[nH]c(=O)n3CC(F)(F)F)cc1 (stereo not drawn)
B = CCCn1c2c(c(=O)[nH]c1=O)C(c1ccccc1)C1=C(COC1=O)N2 (stereo not drawn)
C = CCn1c2c(c(=O)[nH]c1=O)C(c1ccccc1)C1=C(COC1=O)N2 (stereo not drawn)
Query: Sort low-to-high on ΔTm, please. Please reply with the labels ordered as requested. Many thanks.
Result: A, B, C
(A: -0.54 °C, B: 0.14 °C, C: 0.99 °C)

---

- target_under_test: Bromodomain-containing protein 4 (Homo sapiens)
- protocol_text: Inhibition of BI-BODIPY binding to BRD4 bromodomain 1 (42 to 168 residues)(unknown origin) expressed in Escherichia coli BL21(DE3) by fluorescence anisotropy assay
pIC50: −log10 of the molar value.
measure_name: pIC50

// solved cases for pIC50 follow
C=CCN1CC2=C(C1=O)C(c1ccc(C)cc1)c1c(n(CC)c(=O)[nH]c1=O)N2 (centres undefined) ... 6.20
CCn1c2c(c(=O)[nH]c1=O)C(c1ccc(C)cc1)C1=C(CN(CCc3ccc(OC)cc3)C1=O)N2 (centres undefined) ... 6.32

A = CCn1c2c(c(=O)[nH]c1=O)C(c1ccc(C)cc1)C1=C(CN(CCc3ccc(O)cc3)C1=O)N2 (centres undefined)
B = CCn1c2c(c(=O)[nH]c1=O)C(c1ccc(C)cc1)C1=C(CN(Cc3ccccc3)C1=O)N2 (centres undefined)
Query: Returns: the label, A or B , whose recorded pIC50 is the lower number. Give the chosen item's label as your response.
Result: A
